# growth per entry
# Tested on: SNB-75 CNS
# assay-overview: NCI-60 one-dose screen, 48 h (100 = growth as untreated, 0 = no growth, -100 = all killed)
# condition-set: 10 µM unless noted
# Experimental: Growth inhibition of the SNB-75 human tumor cell line is measured as a screen for anti-cancer activity. Cells are grown in 96 well plates and exposed to the test compound for 48 hours. Compounds are tested at a single concentration, which is 10^-5 M for most compounds. The reported endpoint is percent growth (GI% or GIPRCNT), where numbers from 0 - 100% represent growth inhibition, and numbers from -100% - 0 represent cell death. For example, a value of 40 represents 60% growth inhibition. […]
About 83,000 compounds went through this panel and 20% of them were active in at least one assay; those are over-represented in the sample as a whole.
Field: numeric (%). Do not append units.

>  <compound>
COc1ccc2oc(=O)cc(CN3C(=O)S/C(=C\c4ccc(Cl)cc4)C3=O)c2c1

>  <units-text>
%

>  <growth>
98.7

$$$$

Please find the next compound below.
Query: Give the measured growth of CCCNC(=O)Oc1ccc(/C(=C(/C)Cc2ccc(OC)cc2)c2ccc(OCCN3CCCCC3)cc2)cc1 .
Reply: 63.6

###

# Tested on: M14 melanoma
# assay-overview: NCI-60 one-dose screen, 48 h
# condition-set: 10 µM unless noted
# Experimental: Growth inhibition of the M14 human tumor cell line is measured as a screen for anti-cancer activity. Cells are grown in 96 well plates and exposed to the test compound for 48 hours. Compounds are tested at a single concentration, which is 10^-5 M for most compounds. The reported endpoint is percent growth (GI% or GIPRCNT), where numbers from 0 - 100% represent growth inhibition, and numbers from -100% - 0 represent cell death. For example, a value of 40 represents 60% growth inhibition. […]
The panel holds about 83,000 compounds, 20% with a hit somewhere; the sample as a whole holds those more often. Active and inactive are the calls of the source. The calls were made as follows: active = growth percent below 10; inactive = the rest.
Hello, when you answer, please use one of the following outcomes: active, inactive

Worked examples, 5 compounds total:
>  <compound>
CCCCCCCCCCCCOC(=N)N(C)C

>  <assigned-category>
inactive

$$$$
>  <compound>
O=C(O)CC1Cc2ccccc2C1C(=O)O (configuration not stated)

>  <assigned-category>
inactive

$$$$
>  <compound>
COc1ccccc1Nc1nnc(COc2ccc(CNC(=O)CCCC/C=C/C(C)C)cc2OC)o1

>  <assigned-category>
inactive

$$$$
>  <compound>
CCCCN(CCCC)CCCNc1c2c(nc3ccc(Cl)cc13)CCCC2

>  <assigned-category>
inactive

$$$$
>  <compound>
CCCC(=O)Nc1ccccc1C(=O)O

>  <assigned-category>
inactive

$$$$

Query: Entry COc1ccc(-c2nnc(SCC(=O)Nc3ccc(C(=O)/C=C/c4cc(OC)c(OC)c(OC)c4)cc3)n2-c2ccccc2)cc1OC : call = ?
Reply: active

Query: Note, next up: CCCCCc1ccnc(CC(=O)c2ccc(OC)cc2)c1
Reply: inactive

Query: Note, next up: N/C(=N\O)c1ccncc1
Reply: inactive

Query: Note, next up: COC(=O)Nc1nc2ccc(C(=O)c3ccccc3N(C)C3COC3)cc2[nH]1
Reply: inactive

Query: Note, next up: CCOC(=O)c1c(C)oc2ncnc(Nc3ccc(C(=O)NCCc4ccccc4)cc3)c12
Reply: inactive

Query: Note, next up: O=C1C(Cl)=C(SC2=NCCN2)C(=O)c2ccccc21
Reply: active

Query: Note, next up: CC(C)CSc1nc(-c2ccc(F)cc2)c(C#N)c(N2CCCCC2)n1
Reply: inactive

Where these numbers come from: PubChem BioAssay (NCI)
